Target: FKBP F36I (Homo sapiens, UniProt P62942, F37I)
Construct: made in house
Assay: Competitive Binding FP Assay, F36I mutant FKBP
Details: Synthetic Monomers table; normalized to FK506 run in the same experiment
pIC50: −log10 of the molar value.
QUANTITY KIND: pIC50

{"MOLECULE": "COc1ccc(CCC(OC(=O)C2CCCCN2C(=O)C(c2ccccc2)C(C)C)c2cccc(OCC(=O)O)c2)cc1OC (mixture of isomers)", "QUANTITY KIND": "pIC50", "REPORTED": 7.44}
{"MOLECULE": "CCC(C)(C)C(=O)C(=O)N1CCCC[C@H]1C(=O)O[C@H](CCc1ccc(OC)c(OC)c1)c1cccc(OCC(=O)O)c1", "QUANTITY KIND": "pIC50", "REPORTED": 7.37}
{"MOLECULE": "COc1ccc(CCC(OC(=O)C2CCCCN2C(=O)C(Cc2ccccc2)c2ccccc2)c2cccc(OCC(=O)O)c2)cc1OC (mixture of isomers)", "QUANTITY KIND": "pIC50", "REPORTED": 6.91}
{"MOLECULE": "COc1ccc(CCC(OC(=O)C2CCCCN2C(=O)C(c2ccccc2)C2CCCC2)c2cccc(OCC(=O)O)c2)cc1OC (mixture of isomers)", "QUANTITY KIND": "pIC50", "REPORTED": 7.39}

----------
Molecular target: wild-type human FKBP12 (Homo sapiens, UniProt P62942)
Sequence (P62942 whole entry): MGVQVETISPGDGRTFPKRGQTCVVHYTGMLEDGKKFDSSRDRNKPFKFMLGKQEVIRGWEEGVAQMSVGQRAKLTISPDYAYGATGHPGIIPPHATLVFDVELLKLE
Experiment: Competitive Binding FP Assay, wild-type FKBP
pIC50: −log10 of the molar value.

{"COMPOUND": "CC[C@H](C(=O)N1CCCC[C@H]1C(=O)O[C@H](CCc1ccc(OC)c(OC)c1)c1cccc(OCC(=O)O)c1)c1cc(OC)c(OC)c(OC)c1 [AP1867]", "pIC50": 5.53}
